The values you see were collected from patent US9862717B2.

# Lookup of reported IC50 keyed by entry
# study.target: CDK8/CycC (Homo sapiens, UniProt P49336)
# Construct: purchased Invitrogen PV4402
# Sequence (P49336 whole entry): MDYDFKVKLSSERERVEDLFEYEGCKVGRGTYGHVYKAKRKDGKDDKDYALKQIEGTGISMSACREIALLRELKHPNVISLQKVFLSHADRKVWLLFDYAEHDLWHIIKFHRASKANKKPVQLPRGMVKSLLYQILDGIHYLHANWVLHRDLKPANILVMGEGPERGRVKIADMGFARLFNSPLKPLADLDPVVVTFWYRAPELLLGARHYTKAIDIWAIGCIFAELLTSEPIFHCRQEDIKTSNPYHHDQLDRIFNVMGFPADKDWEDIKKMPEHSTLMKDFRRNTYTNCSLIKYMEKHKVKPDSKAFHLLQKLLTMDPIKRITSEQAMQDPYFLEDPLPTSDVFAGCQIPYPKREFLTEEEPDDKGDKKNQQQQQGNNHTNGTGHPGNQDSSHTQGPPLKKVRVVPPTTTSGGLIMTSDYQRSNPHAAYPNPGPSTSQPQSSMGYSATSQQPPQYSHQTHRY
# Sequence (P24863 whole entry partner): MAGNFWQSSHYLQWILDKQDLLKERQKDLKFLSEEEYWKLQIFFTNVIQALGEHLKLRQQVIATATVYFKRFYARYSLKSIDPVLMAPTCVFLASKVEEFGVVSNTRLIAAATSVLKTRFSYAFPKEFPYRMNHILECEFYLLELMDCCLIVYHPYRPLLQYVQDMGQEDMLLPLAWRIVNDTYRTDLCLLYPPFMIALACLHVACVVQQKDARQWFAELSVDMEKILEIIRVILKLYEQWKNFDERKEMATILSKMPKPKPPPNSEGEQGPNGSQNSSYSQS
# test.summary: FRET based Lanthascreen binding competition assay for CDK8 inhibitory activity
# particulars: IC50 [μM], CDK8 co-expressed with CycC; class symbols

Past entries and their recorded results:
Cc1n[nH]c2ccc(C(=O)N3CCN(C)CC3c3ccc(Cl)cc3)cc12 (stereo not drawn) = 0.01 to 0.1 µM
Nc1n[nH]c2ccc(C(=O)N3CCCC[C@H]3c3ccc(F)cc3)cc12 = 0.01 to 0.1 µM
Cc1n[nH]c2ncc(C(=O)N3CCC[C@@H]3c3ccc(Cl)cc3)cc12 = 0.1 to 1 µM

Ask | # input molecule: Nc1n[nH]c2ccc(C(=O)N3CCC[C@@H]3c3ccc(F)cc3)cc12 ; wanted: its IC50
Reply | 0.1 to 1 µM

Ask | # input molecule: Cc1n[nH]c2ccc(C(=O)N3CCC[C@@H]3c3ccc(Cl)cc3)cc12 ; wanted: its IC50
Reply | 0.1 to 1 µM

Ask | # input molecule: Nc1n[nH]c2ccc(C(=O)N3CCC[C@H]3c3ccc(Cl)cc3)cc12 ; wanted: its IC50
Reply | < 0.01 µM

Ask | # input molecule: Cc1n[nH]c2ncc(C(=O)N3CCC[C@H]3c3ccc(Cl)cc3)cc12 ; wanted: its IC50
Reply | < 0.01 µM

Ask | # input molecule: Cc1n[nH]c2cnc(C(=O)N3CCC[C@H]3c3ccc(Cl)cc3)cc12 ; wanted: its IC50
Reply | 0.01 to 0.1 µM

Ask | # input molecule: Cc1n[nH]c2ccc(C(=O)N3CCC[C@H]3c3ccc(Cl)cc3)nc12 ; wanted: its IC50
Reply | < 0.01 µM

* * *

# study.target: CDK8/CycC (Homo sapiens)
# Construct: purchased Invitrogen PV4402
# test.summary: FRET based Lanthascreen binding competition assay for CDK8 inhibitory activity
# particulars: CDK8 co-expressed with CycC; class symbols; read-out: IC50
pIC50: −log10 of the molar value.
# Lookup of reported pIC50 keyed by entry

Past entries and their recorded results:
Cc1n[nH]c2ncc(C(=O)N3CCC(c4ccc(Cl)cc4)C3)cc12 (stereo not drawn) = > 8.00
Cc1n[nH]c2ncc(C(=O)N3CCCC3c3ccc(Br)cc3)cc12 (stereo not drawn) = > 8.00

Ask | API: value(readout= pIC50, system= CDK8/CycC (Homo sapiens), query= Cc1n[nH]c2ncc(C(=O)N3CCCC3c3ccccc3Cl)cc12 (stereo not drawn) )
Reply | 7.00 to 8.00

Ask | API: value(readout= pIC50, system= CDK8/CycC (Homo sapiens), query= Nc1n[nH]c2ccc(C(=O)N3CCCC(c4ccccc4)C3)cc12 (stereo not drawn) )
Reply | 6.00 to 7.00

* * *

# study.target: CDK8/CycC (Homo sapiens, UniProt P49336)
# Construct: purchased Invitrogen PV4402
# test.summary: FRET based Lanthascreen binding competition assay for CDK8 inhibitory activity
# particulars: CDK8 co-expressed with CycC; class symbols; read-out: IC50
pIC50: −log10 of the molar value.
parameter.measured: pIC50

Nc1n[nH]c2ccc(C(=O)N3CCCC3c3cccc(Cl)c3)cc12 (centres unmarked) [compound 147] = 6.00 to 7.00
Nc1n[nH]c2ccc(C(=O)N3CCC(CCO)(c4ccc(Cl)cc4)C3)cc12 (centres unmarked) [compound 250] = 6.00 to 7.00
O=C(c1ccc2[nH]nc(Cl)c2c1)N1CCC[C@H]1c1ccc(Cl)cc1 [compound 217] = 7.00 to 8.00
Cc1n[nH]c2ncc(C(=O)N3CCC[C@@H]3c3cccc(C#N)c3)cc12 [compound 258] = 5.00 to 6.00
CC(C)c1ccc([C@H]2CCCN2C(=O)c2ccc3[nH]nc(N)c3c2)cc1 [compound 195] = 6.00 to 7.00
Cc1n[nH]c2ncc(C(=O)N3CCC[C@H]3c3ccc(Cl)c(C#N)c3)cc12 [compound 252] = 6.00 to 7.00
Cc1n[nH]c2ncc(C(=O)N3C[C@@H](C)C[C@@H]3c3ccc(C(F)(F)F)cc3)cc12 [compound 231] = 5.00 to 6.00
Nc1n[nH]c2ccc(C(=O)N3CCC[C@H]3c3ccccc3)cc12 [compound 131] = 6.00 to 7.00
Cc1ccc([C@@H]2CCCN2C(=O)c2cnc3[nH]nc(C)c3c2)cc1 [compound 136] = > 8.00
Nc1n[nH]c2ccc(C(=O)N3CCCCC3Cc3ccccc3)cc12 (stereo in doubt) [compound 89] = 6.00 to 7.00

Ask | # input compound: COc1n[nH]c2ncc(C(=O)N3CCC[C@H]3c3ccc(Cl)cc3)cc12 [compound 243] ; wanted: its pIC50
Reply | 7.00 to 8.00

Ask | # input compound: O=C(c1cnc2[nH]nc(C3CC3)c2c1)N1CCC[C@H]1c1ccc(Cl)cc1 [compound 152] ; wanted: its pIC50
Reply | > 8.00

Ask | # input compound: O=C(c1cnc2[nH]nc(C(F)(F)F)c2c1)N1CCCCC1c1ccccc1 (centres unmarked) [compound 169] ; wanted: its pIC50
Reply | 6.00 to 7.00

Ask | # input compound: Cc1n[nH]c2ccc(C(=O)N3CC[C@@H]3c3ccc(F)cc3)cc12 [compound 207] ; wanted: its pIC50
Reply | 7.00 to 8.00

Ask | # input compound: Cc1n[nH]c2ncc(C(=O)N3CC[C@@H](c4ccccc4)C3)cc12 [compound 41] ; wanted: its pIC50
Reply | 7.00 to 8.00

Ask | # input compound: COc1ccccc1[C@@H]1CCCN1C(=O)c1cnc2[nH]nc(C)c2c1 [compound 143] ; wanted: its pIC50
Reply | 7.00 to 8.00

Ask | # input compound: Nc1n[nH]c2ccc(C(=O)N3CCCC3c3ccc(C(F)(F)F)cc3)cc12 (centres unmarked) [compound 112] ; wanted: its pIC50
Reply | 7.00 to 8.00

* * *

# study.target: CDK8/CycC (Homo sapiens, UniProt P49336)
# Construct: purchased Invitrogen PV4402
# test.summary: FRET based Lanthascreen binding competition assay for CDK8 inhibitory activity
# particulars: CDK8 co-expressed with CycC; class symbols; read-out: IC50
# Lookup of reported IC50 keyed by entry

Ask | # input compound: COc1ccc([C@H]2CCCN2C(=O)c2cnc3[nH]nc(C)c3c2)cc1 ; wanted: its IC50
Reply | 1 to 10 µM

Ask | # input compound: Cc1n[nH]c2ncc(C(=O)N3CCCC3c3ccc(F)cc3)cc12 (stereo not shown) ; wanted: its IC50
Reply | < 0.01 µM

Ask | # input compound: Cc1n[nH]c2ncc(C(=O)N3CCC[C@H]3c3ccncc3)cc12 ; wanted: its IC50
Reply | 0.1 to 1 µM

Ask | # input compound: Cc1n[nH]c2ncc(C(=O)N3CC[C@@H](C)[C@H]3c3ccc(C(F)(F)F)cc3)cc12 ; wanted: its IC50
Reply | < 0.01 µM

* * *

# study.target: CDK8/CycC (Homo sapiens, UniProt P49336)
# Construct: purchased Invitrogen PV4402
# test.summary: FRET based Lanthascreen binding competition assay for CDK8 inhibitory activity
# particulars: CDK8 co-expressed with CycC; class symbols; read-out: IC50
pIC50: −log10 of the molar value.
parameter.measured: pIC50

Cc1n[nH]c2ccc(C(=O)N3CCCC3c3ccc(Cl)c(F)c3)nc12 (stereo not drawn) [compound 260] = > 8.00
Cc1n[nH]c2ncc(C(=O)N3CCC[C@@H]3c3cccc(Cl)c3)cc12 [compound 45] = 6.00 to 7.00
O=C(c1cnc2[nH]nc(C3CC3)c2c1)N1CCCC1c1ccc(Cl)cc1 (stereo not drawn) [compound 70] = 7.00 to 8.00
Cc1n[nH]c2ncc(C(=O)N3CCC(C(N)=O)CC3c3ccccc3)cc12 (stereo not drawn) [compound 235] = 6.00 to 7.00
CCCc1n[nH]c2ccc(C(=O)N3CCC[C@@H]3c3ccc(Cl)cc3)cc12 [compound 12] = 6.00 to 7.00

Ask | # input compound: Cc1n[nH]c2ncc(C(=O)N3CC[C@H]3c3ccc(Cl)cc3)cc12 [compound 241] ; wanted: its pIC50
Reply | 7.00 to 8.00

Ask | # input compound: Cc1n[nH]c2ncc(C(=O)N3CCC[C@H]3c3ccccc3)cc12 [compound 39] ; wanted: its pIC50
Reply | > 8.00

Ask | # input compound: Cc1n[nH]c2ncc(C(=O)N3CCC[C@@H]3c3ccc(Cl)c(C#N)c3)cc12 [compound 253] ; wanted: its pIC50
Reply | 5.00 to 6.00

Ask | # input compound: CCCc1n[nH]c2ccc(C(=O)N3CCC[C@H]3c3ccc(Br)cc3)cc12 [compound 5] ; wanted: its pIC50
Reply | > 8.00

Ask | # input compound: CC(C)c1ccc(C2CCCN2C(=O)c2ccc3[nH]nc(N)c3c2)cc1 (racemic) [compound 191] ; wanted: its pIC50
Reply | 7.00 to 8.00

Ask | # input compound: CCOc1ccccc1C1CCCN1C(=O)c1ccc2[nH]nc(N)c2c1 (stereo not drawn) [compound 113] ; wanted: its pIC50
Reply | 6.00 to 7.00

Ask | # input compound: Cc1n[nH]c2ncc(C(=O)N3CCC[C@@H]3c3ccc4cn[nH]c4c3)cc12 [compound 229] ; wanted: its pIC50
Reply | 5.00 to 6.00

Ask | # input compound: Cc1n[nH]c2ncc(C(=O)N3CCCC3c3cccc(Cl)c3)cc12 (stereo not drawn) [compound 21] ; wanted: its pIC50
Reply | 7.00 to 8.00

Ask | # input compound: Cc1n[nH]c2ncc(C(=O)N3CCCC(c4ccccc4)C3)cc12 (stereo not drawn) [compound 66] ; wanted: its pIC50
Reply | 6.00 to 7.00
